# System: pCHK1 (S345) in Colo320 DM cells
# Protocol Notes: Alphalisa assay, detection of pCHK1 (S345) in Colo320 DM cells
# Assay type: cell-based, human
# Test Settings: Homo sapiens, COLO 320DM, compound overnight (approximately 16 hours)
pIC50: −log10 of the molar value.
Assay Endpoint: pIC50

CC(=O)c1cc(Cl)cc2c1S(=O)(=O)N([C@H](c1n[nH]c(=O)o1)[C@H](C)c1c(F)ccc(C)c1C)CN2C1CC1 :: ≥ 6.00
Cc1ccc(F)c([C@@H](C)[C@@H](c2n[nH]c(=O)o2)N2CN(CCF)c3cc(Cl)ccc3S2(=O)=O)c1C :: ≥ 6.00

Next up:
Q: Bench note: what pIC50 did Cc1ccc(F)c([C@@H](C)[C@@H](c2n[nH]c(=O)o2)N2CN([C@H]3CCNC3)c3cc(Cl)ccc3S2(=O)=O)c1C show?
A: 5.00 to 5.30
